Measured values drawn from ChEMBL document CHEMBL1139455 for this set.

Each entry below carries its reported relative binding affinity (RBA).
- Tested on: Monoclonal antibody (mAb) 2E2
- TEST_DETAILS: Binding affinity against human monoclonal antibody (mAb) 2E2 relative to cocaine by ELISA method.
ENDPOINT_LABEL: relative binding affinity (RBA)

{"MOLECULE": "CN1C2CCC1[C@@H](C(=O)O)[C@@H](O)C2 (some centres not stated)", "ENDPOINT_LABEL": "relative binding affinity (RBA)", "OBSERVED_MEASUREMENT": 28000}
{"MOLECULE": "COC(=O)[C@@H]1C2CC[C@H](C[C@@H]1c1ccccc1)N2C", "ENDPOINT_LABEL": "relative binding affinity (RBA)", "OBSERVED_MEASUREMENT": 29}
{"MOLECULE": "CNC(=O)[C@@H]1C2CCC(C[C@@H]1OC(=O)c1ccccc1)N2C (some centres not stated)", "ENDPOINT_LABEL": "relative binding affinity (RBA)", "OBSERVED_MEASUREMENT": 29}
{"MOLECULE": "CN1C2CCC1[C@@H](C(N)=O)[C@@H](OC(=O)c1ccccc1)C2 (some centres not stated)", "ENDPOINT_LABEL": "relative binding affinity (RBA)", "OBSERVED_MEASUREMENT": 22}
{"MOLECULE": "CCCC[N+]1(C)C2CC(OC(=O)[C@H](CO)c3ccccc3)CC1C1OC12 (some centres not stated)", "ENDPOINT_LABEL": "relative binding affinity (RBA)", "OBSERVED_MEASUREMENT": 3700}
{"MOLECULE": "CN1C2CCC1[C@@H](C(=O)Oc1ccccc1)[C@@H](c1ccc(Cl)cc1)C2 (some centres not stated)", "ENDPOINT_LABEL": "relative binding affinity (RBA)", "OBSERVED_MEASUREMENT": 1.7}
{"MOLECULE": "COC(=O)[C@H]1C2CCC(C[C@@H]1OC(=O)c1ccccc1)N2 (stereo in doubt)", "ENDPOINT_LABEL": "relative binding affinity (RBA)", "OBSERVED_MEASUREMENT": 1800}
{"MOLECULE": "C[N+]1([O-])C2CC(OC(=O)[C@H](CO)c3ccccc3)CC1C1OC12 (some centres not stated)", "ENDPOINT_LABEL": "relative binding affinity (RBA)", "OBSERVED_MEASUREMENT": 130000}
{"MOLECULE": "COC(=O)C1C2CCC(C[C@@H]1c1ccc(C)cc1)N2C (single isomer, unassigned)", "ENDPOINT_LABEL": "relative binding affinity (RBA)", "OBSERVED_MEASUREMENT": 14}
{"MOLECULE": "COC(=O)[C@@H]1C2CCC(C[C@@H]1c1ccc(Cl)c(Cl)c1)N2C (some centres not stated)", "ENDPOINT_LABEL": "relative binding affinity (RBA)", "OBSERVED_MEASUREMENT": 8.5}
{"MOLECULE": "CN1C2CCC1[C@@H](C(=O)O)[C@@H](OC(=O)c1cccc(O)c1)C2 (some centres not stated)", "ENDPOINT_LABEL": "relative binding affinity (RBA)", "OBSERVED_MEASUREMENT": 32}
{"MOLECULE": "COC(=O)C1=CCC2CCC1N2C (configuration not stated)", "ENDPOINT_LABEL": "relative binding affinity (RBA)", "OBSERVED_MEASUREMENT": 21000}
{"MOLECULE": "CN1C2CCC1[C@@H](C(=O)O)[C@@H](OC(=O)c1ccccc1)C2 (some centres not stated)", "ENDPOINT_LABEL": "relative binding affinity (RBA)", "OBSERVED_MEASUREMENT": 9.8}
{"MOLECULE": "C[N+]1([O-])[C@@H]2CC[C@H]1C[C@@H](OC(=O)C(CO)c1ccccc1)C2 (some centres not stated)", "ENDPOINT_LABEL": "relative binding affinity (RBA)", "OBSERVED_MEASUREMENT": 90000}
{"MOLECULE": "CON(C)C(=O)[C@@H]1C2CCC(C[C@@H]1OC(=O)c1ccccc1)N2C (some centres not stated)", "ENDPOINT_LABEL": "relative binding affinity (RBA)", "OBSERVED_MEASUREMENT": 21}
{"MOLECULE": "CN1C2CCC1CC(O)C2 (configuration not stated)", "ENDPOINT_LABEL": "relative binding affinity (RBA)", "OBSERVED_MEASUREMENT": 91000}
{"MOLECULE": "COC(=O)[C@@H]1C2CCC(C[C@@H]1O)N2C (some centres not stated)", "ENDPOINT_LABEL": "relative binding affinity (RBA)", "OBSERVED_MEASUREMENT": 2500}
{"MOLECULE": "COC(=O)[C@@H]1C2CCC(C[C@@H]1c1ccc(I)cc1)N2C (some centres not stated)", "ENDPOINT_LABEL": "relative binding affinity (RBA)", "OBSERVED_MEASUREMENT": 4.5}
{"MOLECULE": "COC(=O)[C@@H]1C2CCC(C[C@@H]1OC(=O)c1cccc(O)c1)N2C (some centres not stated)", "ENDPOINT_LABEL": "relative binding affinity (RBA)", "OBSERVED_MEASUREMENT": 8.4}
{"MOLECULE": "CN1C2CCC1[C@@H](C(=O)O)[C@@H](OC(=O)c1ccc(O)cc1)C2 (some centres not stated)", "ENDPOINT_LABEL": "relative binding affinity (RBA)", "OBSERVED_MEASUREMENT": 36}
{"MOLECULE": "O=C(O[C@H]1CC2CCC(N2)[C@H]1C(=O)O)c1ccccc1 (some centres not stated)", "ENDPOINT_LABEL": "relative binding affinity (RBA)", "OBSERVED_MEASUREMENT": 120}
{"MOLECULE": "CCOC(=O)[C@@H]1C2C(C)CC(C[C@@H]1OC(=O)c1ccccc1)N2C (some centres not stated)", "ENDPOINT_LABEL": "relative binding affinity (RBA)", "OBSERVED_MEASUREMENT": 0.21}
